Where do the numbers come from? From PubChem BioAssay (Tox21).

target: Estrogen receptor (Homo sapiens); assay: qHTS assay to identify small molecule agonists of the estrogen receptor alpha (ER-alpha) signaling pathway (AID 743075); conditions: HEK293 ER-alpha-UAS-bla, beta-lactamase FRET ratio, 18 h; series mostly up to 70.1 µM;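 also: HEK293 GripTite cells with ER-alpha and UAS-driven beta-lactamase reporter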
Active and inactive are the calls of the source. Calls follow the shape of the full dose curve.
Tick one outcome: active, inactive

Study these solved cases before continuing.
COC(=O)CS :: inactive
C=C1CCC2CC1C2(C)C (configuration not stated) :: inactive
CCCC(=O)C(=O)O :: inactive
Brc1cc2ccccc2c2ccccc12 :: inactive
c1ccc2sc(SN(C3CCCCC3)C3CCCCC3)nc2c1 :: inactive

In: # lookup: test call for `CC1=Nc2ccc3ccccc3c2C1(C)C`
Out: inactive

In: # lookup: test call for `C/C=C(/C(=C/C)c1ccc(O)cc1)c1ccc(O)cc1`
Out: active

In: # lookup: test call for `Cc1ccc(Cl)c(Nc2ccccc2C(=O)O)c1Cl`
Out: inactive

In: # lookup: test call for `N#[N+]c1ccc2c(S(=O)(=O)[O-])cccc2c1O`
Out: inactive

###

experiment: qHTS assay to identify small molecule agonists of the farnesoid-X-receptor (FXR) signaling pathway - cell viability counter screen (AID 743218); details: FXR-bla HEK293T viability, CellTiter-Glo luminescence, 16 h; series mostly up to 62.6 µM; also: nearly all actives have a fitted effect of over 45% in size
Inconclusive results are not listed. Active and inactive are the calls of the source. Calls follow the shape of the dose curve; as a rule, active = well fitted cell-killing curve with a large enough effect in the repeat runs; inconclusive = weak or mixed curves, or effect the other way; inactive = no such curve, though single readings can be large or run the other way.
Tick one outcome: active, inactive

Study these solved cases before continuing.
O=c1[nH]c2ccc(Cl)cc2o1 :: inactive
NNC(=O)CP(=O)(c1ccccc1)c1ccccc1 :: inactive
OCCOCC#CCOCCO :: inactive
CN1C(=O)N(c2ccccc2Br)Cc2cnc(Nc3ccc4c(c3)OCC(CO)O4)nc21 (centres undefined) :: inactive
C1COC1 :: inactive

Continue with the next compound.
In: # lookup: test call for CCC(C)COC(=O)CC(C)C (centres undefined)
Out: active

###

Assay: qHTS assay to identify small molecule antagonists of the retinoic acid receptor (RAR) signaling pathway (AID 1159552; also: nearly all actives have a fitted effect of over 50% in size)
Conditions: C3RL4 RARE luciferase reporter, retinol-stimulated, 6 h; series mostly up to 92.4 µM
Source text: National Center for Advancing Translational Sciences [NCATS] NIH Chemical Genomics Center [NCGC] U.S. Environmental Protection Agency [EPA] National Institutes of Environmental Health Sciences [NIEHS] National Toxicology Program [NTP] U.S. Food and Drug Administration [FDA] […]
Inconclusive results are not listed. Calls of active or inactive are those of the source. Calls follow the shape of the dose curve; as a rule, active = well fitted inhibition curve with a large enough effect in the repeat runs; inconclusive = weak or mixed curves, or effect the other way; inactive = no such curve, though single readings can be large or run the other way.
recordedMetric: outcome

Worked cases, answers included:
Oc1cccc(Nc2ccccc2)c1 :: inactive
Nc1nc2ccc([N+](=O)[O-])cc2s1 :: inactive
CCOc1cccc(-n2cc(C(=O)N3CCN(c4cc(C(=O)O)c5ccccc5c4)CC3)nc2-c2ccc(C)cc2)c1 :: inactive
C=C(C)CCCC(C)CCO (stereo not given) :: inactive

# evaluate next
In: outcome for `CN1CC(=O)N2[C@H](c3ccc4c(c3)OCO4)c3[nH]c4ccccc4c3C[C@@H]2C1=O` ?
Out: inactive

###

assay: qHTS assay to identify small molecule antagonists of the thyroid receptor (TR) signaling pathway (AID 743065); details: GH3.TRE-Luc, T3-stimulated luciferase inhibition, 23.5 h; series mostly up to 70.3 µM; also: nearly all actives have a fitted effect of over 55% in size
Results filed as inconclusive are left out. The source made the active and inactive calls. The call rests on the fitted dose curve; in most records, active means well fitted inhibition curve with a large enough effect in the repeat runs; inconclusive means weak or mixed curves; inactive means no such curve, though single readings can be large or run the other way.
Tick one outcome: active, inactive

In: # lookup: test call for `C=COCC(C)C`
Out: inactive

In: # lookup: test call for NC1[C@H]2CN(c3nc4c(cc3F)c(=O)c(C(=O)O)cn4-c3ccc(F)cc3F)C[C@@H]12 (some centres not stated)
Out: active

In: # lookup: test call for `CC(C)(c1ccccc1)c1ccccc1`
Out: inactive

In: # lookup: test call for `CCOC(=O)c1ccc(I)cc1`
Out: inactive

In: # lookup: test call for Cc1cc2c(OCC(CNC(C)(C)C)OC(=O)c3ccccc3)cccc2[nH]1 (configuration not stated)
Out: active

In: # lookup: test call for `O=C1c2ccccc2C(=O)C1c1nc2ccccc2c(Br)c1O`
Out: inactive

In: # lookup: test call for `CC[C@]1(O)C[C@H]2CN(CCc3c([nH]c4ccccc34)[C@@](C(=O)OC)(c3cc4c(cc3OC)N(C=O)[C@H]3[C@@](O)(C(=O)OC)[C@H](OC(C)=O)[C@]5(CC)C=CCN6CC[C@]43[C@@H]65)C2)C1`
Out: active

In: # lookup: test call for `Cc1ccco1`
Out: inactive

In: # lookup: test call for CCOC(=O)OC(C)OC(=O)[C@@H]1N2C(=O)[C@@H](NC(=O)[C@H](N)c3ccccc3)[C@H]2SC1(C)C (some centres not stated)
Out: inactive

In: # lookup: test call for `CC(=O)NC1(c2cccc(F)c2)CCN(CC[C@@]2(c3ccc(Cl)c(Cl)c3)CN(c3ccccc3)C(=O)CO2)CC1`
Out: active

In: # lookup: test call for `OC[C@H]1O[C@@H](n2cnc3c(=S)nc[nH]c32)[C@H](O)[C@@H]1O`
Out: active

In: # lookup: test call for `CC1=C(Br)C(=O)C(Br)=C/C1=C(/c1ccccc1S(=O)(=O)O)c1cc(Br)c(O)c(Br)c1C`
Out: active

In: # lookup: test call for `COC(=O)CCS`
Out: inactive

In: # lookup: test call for `CCn1cc(C(=O)O)c(=O)c2cc(F)c(N3CCNCC3)cc21`
Out: inactive

In: # lookup: test call for `C=C(C)C(=O)OCCOCCOC(=O)C(=C)C`
Out: inactive

In: # lookup: test call for `CN1C(=O)c2ccccc2C1=O`
Out: inactive

In: # lookup: test call for `CC(=O)Nc1ccc(C)cc1C`
Out: inactive

In: # lookup: test call for `CO/N=C(/C(=O)N[C@@H]1C(=O)N2C(C(=O)O)=C(COC(N)=O)CS[C@H]12)c1ccco1`
Out: inactive

In: # lookup: test call for `O=Cc1c2ccccc2c(Cl)c2ccccc12`
Out: inactive
